The entries below are paired with their reported normalized growth.
- ASSAY INFO: chemical genetic growth profiling, strain panel (AID 1159580);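 also: tested at 20 µM; growth read once vehicle control cultures reached saturation at 30 °C; 1 = growth at the plate median or of vehicle wells; lower values mean less growth of the strain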
- DETAILS: S. cerevisiae deletion strains, growth OD, locus YML120C, strain ndi1, active compounds read low
Among all 5,500 compounds or so, about 2,000 (36%) were called active. Another 18% or so got no clear call; they are omitted. Some of the results follow.
RECORDED ENDPOINT: normalized growth

1. OC/C=C/c1ccc(O)c(O)c1
0.992 (inactive)
2. N[C@@H](CCC(=O)N[C@@H](CCSC(CC(=O)O)C(=O)O)C(=O)NCC(=O)O)C(=O)O (some centres undefined)
0.993 (inactive)
3. O=C(O)c1cc(O)c(O)c(O)c1
1.01 (inactive)
4. CC1(C)O[C@@H]2[C@@H](CO[C@@]3(COS(N)(=O)=O)OC(C)(C)O[C@@H]23)O1
0.999 (inactive)
5. CCOC(=O)CCCCCCCCCCCCC1C=CCC1 (centres undefined)
0.994 (inactive)
6. O=C(O)CCCCC1SCC2NC(=O)NC21 (centres undefined)
0.976 (inactive)
7. COc1ccc(/C=C/C(=O)c2cc(O)ccc2O)cc1
0.221 (active)
8. Oc1ccc(/C=C/c2cc(O)cc(O)c2)cc1
0.956 (inactive)
9. NCCCCN=C(N)N
1.04 (inactive)
10. CCCN(CCC)C(=O)C(CCC(=O)O)NC(=O)c1ccccc1 (centres undefined)
0.988 (inactive)
11. C#C[C@]1(O)CCC2C3CCc4cc(OC)ccc4C3CC[C@@]21C (some centres undefined)
0.933 (inactive)
12. Nc1nc2ncc(CNc3ccc(C(=O)N[C@@H](CCC(=O)O)C(=O)O)cc3)nc2c(=O)[nH]1
0.995 (inactive)
13. CCCNC(C)C(=O)Nc1ccccc1C (centres undefined)
1 (inactive)
14. S=c1[nH]c2ccccc2s1
1.07 (inactive)

Where these numbers come from: PubChem BioAssay AID1159580
